Target: Mitogen-activated protein kinase 11 (Homo sapiens) (UniProt Q15759)
Sequence (Q15759 whole entry): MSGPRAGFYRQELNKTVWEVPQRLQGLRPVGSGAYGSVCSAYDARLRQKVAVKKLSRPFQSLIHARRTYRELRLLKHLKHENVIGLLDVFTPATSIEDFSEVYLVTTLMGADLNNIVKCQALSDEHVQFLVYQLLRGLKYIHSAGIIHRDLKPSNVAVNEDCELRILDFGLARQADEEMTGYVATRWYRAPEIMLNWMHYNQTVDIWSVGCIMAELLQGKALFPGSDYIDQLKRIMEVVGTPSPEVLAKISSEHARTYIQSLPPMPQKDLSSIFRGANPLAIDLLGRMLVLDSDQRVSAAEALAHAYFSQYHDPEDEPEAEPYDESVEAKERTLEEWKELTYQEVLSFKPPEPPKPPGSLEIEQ
Conditions: at 10 µM
result type: residual activity
The reply should consist of the numeric value with the unit placed after it.

Qu. Which value of residual activity has been reported for CCN(CC)CCCCN1c2ccccc2Oc2ccc(Cl)cc21 in the records?
Ans. 101%

Qu. Form field: reported residual activity of C[C@@H](N)[C@H]1CC[C@H](C(=O)Nc2ccncc2)CC1
Ans. 120%

Qu. Give its residual activity value. Item: CC(=O)c1ccc(N2CCOCC2)cc1O
Ans. 104%

Qu. Endpoint output: residual activity of CN(C)c1ccc(/C=C2\C(=O)Nc3ccccc32)cc1 . Value?
Ans. 99%

Qu. Item COc1ccc(C(=O)Nc2sc3c(c2C(N)=O)CCCC3)cc1OC has what recorded residual activity?
Ans. 105%

Qu. For COc1cc2ncnc(Nc3ccc(NC(=O)c4ccccc4)cc3)c2cc1OC , what is its reported residual activity?
Ans. 97%

Qu. Looking for the measured residual activity of O=C1NC(=O)/C(=C\c2ccc3nccnc3c2)S1 , can you help?
Ans. 102%

Qu. Please give the measured residual activity for this compound: Cn1cnc2cc3c(Nc4cccc(Br)c4)ncnc3cc21
Ans. 89%

Qu. Could you tell me which residual activity is on file for Oc1n[nH]c2nnc(-c3c(-c4ccccc4)nn4ccccc34)cc12 ?
Ans. 91%

Qu. I'd like to know its residual activity. The compound in question is COc1ccc(S(=O)(=O)N(CCO)c2ccccc2CN(C)C/C=C/c2ccc(Cl)cc2)cc1
Ans. 88%

Qu. Bench note: what residual activity did Cc1nc(-c2ccccc2)c(-c2ccncc2)o1 show?
Ans. 58%

Qu. Name the recorded residual activity for CC#CC(=O)Nc1cc2c(Nc3ccc(F)c(Cl)c3)ncnc2cn1 .
Ans. 86%

Qu. Which residual activity is reported for this compound? Cc1ccc(S(=O)(=O)/C=C/C#N)cc1
Ans. 104%

Qu. Please look up its residual activity: c1ccc(-c2n[nH]c3c2oc2ccccc23)cc1
Ans. 84%

Qu. // returns reported residual activity for input O=C1NC(=O)/C(=C/c2ccc3c(c2)OC(F)(F)O3)S1
Ans. 117%

Data credit: ChEMBL document CHEMBL2218924
